Tested on: Danio rerio larvae (5 dpf)
Assay: difference in habituation to acoustic stimuli vs DMSO (percentage points); higher = more habituation than DMSO
Details: 10 µM; exposure time 6 h
Structures can show the parent of a compound that is named as a salt.
Record form. Attribute: difference in habituation to acoustic stimuli. Fill in for each entry.
Reply with just the number.

Param item: CN1C(CCl)Nc2cc(Cl)c(S(N)(=O)=O)cc2S1(=O)=O (stereo not given) [Methyclothiazide] ; param system: Danio rerio larvae (5 dpf); output difference in habituation to acoustic stimuli: 2

difference in habituation to acoustic stimuli on Danio rerio larvae (5 dpf) for CC[N+](C)(C)c1cccc(O)c1 [Edrophonium (chloride)] is 7.33

Let me check: CN(C)CCC=C1c2ccccc2C=Cc2ccccc21 [Cyclobenzaprine (hydrochloride)] , system Danio rerio larvae (5 dpf), measured difference in habituation to acoustic stimuli is -8.81

difference in habituation to acoustic stimuli on Danio rerio larvae (5 dpf) for Nc1nc(=O)c2c([nH]1)NC[C@H](CNc1ccc(C(=O)N[C@@H](CCC(=O)O)C(=O)O)cc1)N2C=O [L-Folinic Acid (calcium salt)] is -0.456

Value (difference in habituation to acoustic stimuli, Danio rerio larvae (5 dpf)) for record COc1ccc(S(=O)(=O)Nc2ccccc2CN(C)C/C=C/c2ccc(Cl)cc2)cc1 [KN-92 (hydrochloride)] = -4.48

The compound CC1(C)O[C@@H]2C[C@H]3[C@@H]4C[C@H](F)C5=CC(=O)C=C[C@]5(C)[C@H]4[C@@H](O)C[C@]3(C)[C@]2(C(=O)CO)O1 [Flunisolide] , tested on Danio rerio larvae (5 dpf), showed difference in habituation to acoustic stimuli of 1.9

Short answer on Danio rerio larvae (5 dpf) for CCCCNC(=O)NS(=O)(=O)c1ccc(C)cc1 [Tolbutamide] , difference in habituation to acoustic stimuli: 0.867

Field difference in habituation to acoustic stimuli (system: Danio rerio larvae (5 dpf)) for entry O=P(O)(O)C(O)(Cn1ccnc1)P(=O)(O)O [Zoledronic Acid (hydrate)] = 0.128

# value of difference in habituation to acoustic stimuli, Danio rerio larvae (5 dpf), item CCOC(=O)[C@H](CCc1ccccc1)N[C@@H](C)C(=O)N1Cc2cc(OC)c(OC)cc2C[C@H]1C(=O)O [Moexipril (hydrochloride)] = 2.63

So the reported difference in habituation to acoustic stimuli for CN(C)CC/C=C1/c2ccccc2COc2ccc(CC(=O)O)cc21 [Olopatadine (hydrochloride)] , on Danio rerio larvae (5 dpf), turned out to be 3.84

Item: C[C@]12CC[C@@H]3c4ccc(OS(=O)(=O)O)cc4CC[C@H]3[C@@H]1CCC2=O [Estropipate] | System: Danio rerio larvae (5 dpf) | difference in habituation to acoustic stimuli: -2.86

Here CCCCC[C@H](O)/C=C/[C@H]1[C@H](O)CC(=O)[C@@H]1CCCCCCC(=O)O [Prostaglandin E1] was tested on Danio rerio larvae (5 dpf), and its difference in habituation to acoustic stimuli came to -1.03

Record CO/N=C(\C(=O)N[C@@H]1C(=O)N2C(C(=O)O)=C(COC(N)=O)CS[C@H]12)c1ccco1 [Cefuroxime (sodium salt)] ; system Danio rerio larvae (5 dpf); difference in habituation to acoustic stimuli = 2.43

For Nc1nc(F)nc2c1ncn2[C@@H]1O[C@H](COP(=O)(O)O)[C@@H](O)[C@@H]1O [Fludarabine Phosphate] on Danio rerio larvae (5 dpf), measured difference in habituation to acoustic stimuli was -5.41

Summary: CC(=O)O[C@]1(C(C)=O)CC[C@H]2[C@@H]3C=C(C)C4=CC(=O)CC[C@]4(C)[C@H]3CC[C@@]21C [Megestryl Acetate] , Danio rerio larvae (5 dpf), difference in habituation to acoustic stimuli = -8.79
